Origin of the recorded values: patent US7226761B2

The following compounds are listed with their measured Relative activity (20 mM) values.
- target of assay: DOG1 (Saccharomyces cerevisiae)
- Construct: expressed in transfected cells; host or cells: S. cerevisiae H1104 (W303-1B) transformed with plasmid B1020 (YEplac195, ADH1 promoter-DOG1-ADH1 terminator) = strain H1514; crude cell extract
- Sequence (P38774 whole entry): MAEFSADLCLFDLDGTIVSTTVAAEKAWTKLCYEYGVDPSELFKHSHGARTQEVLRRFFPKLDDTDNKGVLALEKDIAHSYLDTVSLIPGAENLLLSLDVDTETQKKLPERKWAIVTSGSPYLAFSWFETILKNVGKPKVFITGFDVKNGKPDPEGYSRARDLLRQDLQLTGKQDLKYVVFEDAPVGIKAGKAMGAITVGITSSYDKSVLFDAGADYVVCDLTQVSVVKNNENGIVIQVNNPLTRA
- method description: Specificity of DOG1 towards sugar phosphates in yeast cell extracts (phosphate release)
- Type: biochemical, S. cerevisiae
- test settings: 20 mM substrate; cell extract of H1514; relative to 2-deoxyglucose-6-P as 100%
- Description: The specificity of DOG1 towards xylulose-5-P, ribulose-5-P, ribose-5-P and 2-deoxyglucose-6-P was determined using 20 mM substrate concentrations. Yeast cell extracts were prepared as described in example 15, except that 50 mM imidazole-HCl, 10 mM MgCl2 buffer, pH 6.0 was used. […] The reaction was stopped with final 2% of TCA and the phosphate released was measured using ammonium molybdate (15 mM), zinc acetate (100 mM), pH 5.0 as the reagent. […]

compound: O=C(CO)[C@H](O)[C@H](O)COP(=O)(O)O [ribulose-5-P, ribulose-5-phosphate]
target of assay: DOG1 (Saccharomyces cerevisiae)
Relative activity (20 mM) / %: 6
--
compound: O=C[C@H](O)[C@H](O)[C@H](O)COP(=O)(O)O [ribose-5-P, ribose-5-phosphate]
target of assay: DOG1 (Saccharomyces cerevisiae)
Relative activity (20 mM) / %: 52
--
compound: O=C(CO)[C@@H](O)[C@H](O)COP(=O)(O)O [xylulose-5-P, Xylulose-5-phosphate]
target of assay: DOG1 (Saccharomyces cerevisiae)
Relative activity (20 mM) / %: 15
--
compound: O=CC[C@@H](O)[C@H](O)[C@H](O)COP(=O)(O)O [2-deoxyglucose-6-P, 2-deoxyglucose-6-phosphate]
target of assay: DOG1 (Saccharomyces cerevisiae)
Relative activity (20 mM) / %: 100
